target.of.assay: human sEH (Homo sapiens, UniProt P34913)
Construct: made in house; host or cells: baculovirus expression system
Sequence (P34913 whole entry): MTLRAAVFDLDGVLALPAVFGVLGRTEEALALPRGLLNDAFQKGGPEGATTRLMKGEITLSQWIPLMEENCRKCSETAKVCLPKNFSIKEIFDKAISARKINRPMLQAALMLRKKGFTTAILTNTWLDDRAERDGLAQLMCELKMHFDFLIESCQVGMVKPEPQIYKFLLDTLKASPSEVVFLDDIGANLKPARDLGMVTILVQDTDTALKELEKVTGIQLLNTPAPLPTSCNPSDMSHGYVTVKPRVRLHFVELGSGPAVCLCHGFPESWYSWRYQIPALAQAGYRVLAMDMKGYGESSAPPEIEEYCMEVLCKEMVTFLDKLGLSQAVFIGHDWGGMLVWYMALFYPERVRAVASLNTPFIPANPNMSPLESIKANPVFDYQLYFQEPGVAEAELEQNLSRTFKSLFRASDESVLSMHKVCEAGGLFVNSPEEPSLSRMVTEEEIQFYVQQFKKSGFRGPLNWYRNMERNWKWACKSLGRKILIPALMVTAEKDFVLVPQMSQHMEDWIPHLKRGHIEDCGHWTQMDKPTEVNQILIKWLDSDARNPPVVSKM
measurement.description: Inhibition of recombinant human sEH, IC50 assay with 4-nitrophenyl-trans-2,3-epoxy-3-phenylpropyl carbonate as substrate
Format: biochemical
assay.conditions: Table 7; established protocols; read-out: IC50 (μM) Human sEH
Measured IC50, listed per entry.
measurement.kind: IC50 (µM)

compound=COCCOCCCCCNC(=O)NC12CC3CC(CC(C3)C1)C2 test_value=0.16
compound=O=C(NCCCCCOCCOCCOCc1ccccc1)NC12CC3CC(CC(C3)C1)C2 test_value=0.1
compound=CCOC(=O)CCCCCCOCCCCCNC(=O)NC12CC3CC(CC(C3)C1)C2 test_value=0.11
compound=O=C(NCCCCCOCCCCCOCC(F)(F)F)NC12CC3CC(CC(C3)C1)C2 test_value=0.13
compound="CCCC(C)COCCOCCOCCCCCNC(=O)NC12CC3CC(CC(C3)C1)C2 (stereo not shown)" test_value=0.13
compound=O=C(NCCCCCOCCOCCOCCO)NC12CC3CC(CC(C3)C1)C2 test_value=0.1
compound=C#COCCOCCCCCNC(=O)NC12CC3CC(CC(C3)C1)C2 test_value=0.1
